Just for reference, PubChem BioAssay (NCI) is where these values come from.

Documented growth across a set of compounds
System: SN12C renal
protocol.summary: NCI-60 one-dose screen, 48 h (100 = growth as untreated, 0 = no growth, -100 = all killed)
details: 10 µM unless noted
About 83,000 compounds went through this panel and 20% of them were active in at least one assay; those are over-represented in the sample as a whole.
Answer format: numeric, % implied, no suffix.

[[record]]
compound = "COc1ccc(N/N=C/c2ccc3c(c2)Sc2ccccc2N3C)cc1"
measured_result = 79.3


Exercise: Note down growth recorded for CCOC(=O)C1=C(C)N(C)C(=O)N(C)C1c1ccccc1 (centres undefined)
Solution: 91.6

Exercise: Tell me its growth given "Nc1ccc(N)c2c1C(=O)c1cccc([N+](=O)[O-])c1C2=O" as the entry.
Solution: 25.9

Exercise: # return recorded growth for entry "Nc1ncc(-c2ccc3ncnc(N4CCc5cc(F)c(Cl)cc54)c3c2)cc1C(F)(F)F"
Solution: 24.8

---

Tested on: SNB-75 CNS
protocol.summary: NCI-60 one-dose screen, 48 h (100 = growth as untreated, 0 = no growth, -100 = all killed)
details: 10 µM unless noted
Protocol: Growth inhibition of the SNB-75 human tumor cell line is measured as a screen for anti-cancer activity. Cells are grown in 96 well plates and exposed to the test compound for 48 hours. Compounds are tested at a single concentration, which is 10^-5 M for most compounds. The reported endpoint is percent growth (GI% or GIPRCNT), where numbers from 0 - 100% represent growth inhibition, and numbers from -100% - 0 represent cell death. For example, a value of 40 represents 60% growth inhibition. […]
The panel holds about 83,000 compounds, 20% with a hit somewhere; the sample as a whole holds those more often.
The class of a record is decided solely by its measured growth; consult lo: < 40%; mid: ≥ 40% and < 80%; hi: ≥ 80%

[[record]]
compound = "COc1cc(/C=N/NC(=O)c2ccc3nc(-c4ccc(Cl)cc4)[nH]c3c2)cc(OC)c1OC"
assay_system = "SNB-75 CNS"
class_name = "hi"

[[record]]
compound = "Nc1ncc(-c2ccc3ncnc(N4CCc5cc(F)c(Cl)cc54)c3c2)cc1C(F)(F)F"
assay_system = "SNB-75 CNS"
class_name = "lo"

[[record]]
compound = "CCN(CC)CCOc1ccc(/C(=C(\\C)Cc2ccc(OC)cc2)c2ccc(O)cc2)cc1"
assay_system = "SNB-75 CNS"
class_name = "lo"


Exercise: Lab note: which band did "[2H]C([2H])([2H])Oc1c(F)cccc1/C=C/C(=O)/C=C(O)/C=C/c1cccc(F)c1OC([2H])([2H])[2H]" land in?
Solution: hi

Exercise: Using the reported growth, which band applies to Cc1c(C)c2c(c(C)c1OC(=O)CCC(=O)[O-])CCC(C)(CCCCCCCCCCC[P+](c1ccccc1)(c1ccccc1)c1ccccc1)O2 (stereo unspecified) ?
Solution: lo

Exercise: Could you tell me which band "COc1cc(/C=C/C(=O)c2ccc(-n3cc(CN4CCN(c5cc6c(cc5F)c(=O)c(C(=O)O)cn6C5CC5)CC4)nn3)cc2)cc(OC)c1OC" belongs to?
Solution: hi

Exercise: Band of COc1ccc(C(=O)C2OC3=C(C(=O)CC(C)(C)C3)C2c2cccc(Oc3ccccc3)c2)cc1 (stereo unspecified) ?
Solution: hi

Exercise: Where would "CCOC(=O)/C(=C\c1ccccc1Cl)P(=O)(OCC)OCC" land among the classes by reported growth?
Solution: mid

Exercise: Hi there! Could you help me figure out the category for "Cn1cc(-c2csc(-c3cn(CCO)c4ccc(F)cc34)n2)c2cccnc21" please?
Solution: mid

---

Test system: RPMI-8226 leukemia
protocol.summary: NCI-60 one-dose screen, 48 h (100 = growth as untreated, 0 = no growth, -100 = all killed)
details: 10 µM unless noted
The panel holds about 83,000 compounds, 20% with a hit somewhere; the sample as a whole holds those more often.
measurement.name: growth (%)
The reply should contain only the number, in %.

[[record]]
compound = "COC(=O)c1cc(-c2cc(OC)c(OC)c(OC)c2)[nH]c1N/N=C/c1c(Cl)cccc1Cl"
measurement_name = "growth"
measured_result = 18.4

[[record]]
compound = "COC(=O)c1nc(-c2ccccc2)oc1S(=O)(=O)N1CCN(c2ccc(OC)cc2)CC1"
measurement_name = "growth"
measured_result = 37.3

[[record]]
compound = "COc1cc(/C=C/C(=O)c2ccc(-n3cc(CN4CCN(c5cc6c(cc5F)c(=O)c(C(=O)O)cn6C5CC5)CC4)nn3)cc2)cc(OC)c1OC"
measurement_name = "growth"
measured_result = 6.02

[[record]]
compound = "Cc1nn(C)c2ncnc(Nc3ccccc3Br)c12"
measurement_name = "growth"
measured_result = 95.2

[[record]]
compound = "Oc1ccc(Cc2ccc(O)c3ncccc23)c2cccnc12"
measurement_name = "growth"
measured_result = 8.21


Exercise: Write down growth measured for item "C=C1/C(=C\C=C2/CCC[C@]3(C)[C@@H]([C@H](C)CCCC(C)(C)O)CC[C@@H]23)C[C@@H](OC(=O)CBr)C[C@@H]1O"
Solution: -50.7

Exercise: Given "Cn1cc(-c2nc(-c3c[nH]c4c(Cl)nccc34)cs2)c2ccccc21" , respond with its growth.
Solution: 87.2

Exercise: Supply measured growth of "O=C(Nc1ncc(Cc2ccccc2Cl)s1)c1ccc2c(c1)OCCO2" in your reply.
Solution: 19.3

---

Test system: PC-3 prostate
protocol.summary: NCI-60 one-dose screen, 48 h (100 = growth as untreated, 0 = no growth, -100 = all killed)
details: 10 µM unless noted
About 83,000 compounds went through this panel and 20% of them were active in at least one assay; those are over-represented in the sample as a whole.
Rule: growth under 70% gives criterion not met, otherwise criterion met.

[[record]]
molecule = "Nc1nc(N)c2c(n1)NC(c1ccc3c(c1)OCO3)CC(c1cccc(Nc3ccncc3)c1)=N2 (stereo not given)"
class_name = "criterion not met"

[[record]]
molecule = "O=C(/C=C/c1cccc([N+](=O)[O-])c1)c1ccc(Nc2nc(Nc3ccc(F)cc3)nc(Nc3ccc(Cl)cc3)n2)cc1"
class_name = "criterion met"

[[record]]
molecule = "CCC(C)C(N)C(=O)NC(CC(C)C)C(=O)N1CCCC1C(=O)NC(Cc1c[nH]c2ccccc12)C(=O)NC(CCCCN)C(=O)NC(Cc1c[nH]c2ccccc12)C(=O)N1CCCC1C(=O)NC(Cc1c[nH]c2ccccc12)C(=O)NC(Cc1c[nH]c2ccccc12)C(=O)N1CCCC1C(=O)NC(Cc1c[nH]c2ccccc12)C(=O)NC(CCCNC(=N)N)C(=O)NC(CCCNC(=N)N)C(N)=O (stereo not given)"
class_name = "criterion met"

[[record]]
molecule = "CCOc1ccc(-c2cc(C3(S(=O)(=O)c4ccc(C)cc4)CC=CC3)on2)cc1"
class_name = "criterion met"


Exercise: # bool: growth of CC(Cc1cccc2ccccc12)C(N)=O (stereo not given) >= 70%
Solution: criterion met

Exercise: Quick check: does "COc1ccc(Cn2cc3c(c2)-c2oncc2CC3)cc1" have growth greater than or equal to 70%?
Solution: criterion met

Exercise: Assess whether reported growth for "N#C/C(=N\Nc1ccccc1)C(=O)Nc1cc(-c2ccccc2)nn1-c1ccccc1" sits at 70% or higher.
Solution: criterion not met

Exercise: Say whether "Nc1nc(=O)n([C@H]2CC=C(CO)O2)cc1F" shows growth of 70% or more.
Solution: criterion met

Exercise: Quick check, growth >= 70%? "CC(C)C(=O)Nc1ncc(C(=O)NCCN(Cc2ccccc2)C(=O)c2ccc(S(=O)(=O)Nc3ccccc3)cc2)s1"
Solution: criterion met

---

Test system: HCC-2998 colon
protocol.summary: NCI-60 one-dose screen, 48 h (100 = growth as untreated, 0 = no growth, -100 = all killed)
details: 10 µM unless noted
This is part of a sample that, as a whole, favours compounds with a hit. Of some 83,000 tested, about 20% had one in any assay. The source made the active and inactive calls. Rule for the calls: active = growth percent below 10; inactive = the rest.
This listing pairs molecules with measured growth.

Solved cases below.
[[record]]
molecule = "O=C1NC(=O)C(=Cc2cc(-c3ccc(Cl)cc3)n(-c3ccccc3)n2)C(=O)N1"
measured_result = "110% (inactive)"

[[record]]
molecule = "C=C(C)[C@@H]1CC[C@]2(COCCCNCCCN)CC[C@]3(C)[C@H](CC[C@@H]4[C@@]5(C)CC[C@H](OCCCN)C(C)(C)[C@@H]5CC[C@]43C)[C@@H]12"
measured_result = "-24.8% (active)"

[[record]]
molecule = "CN1CCN(CC(=O)N(C)c2ccc(N=C(c3ccccc3)c3c(O)[nH]c4ccc([N+](=O)[O-])cc34)cc2)CC1"
measured_result = "78.7% (inactive)"


Exercise: Specify reported growth for the molecule shown: "O=C(/C=C/c1ccco1)Nc1ncc(Cc2ccc(F)cc2)s1"
Solution: 7.46% (active)

Exercise: Answer with reported growth of "C=CCNc1ccc2c3c(cccc13)C(=O)N(CC=C)C2=O"
Solution: 106% (inactive)
